Molecular target: BRCA2 peptide/HLA-A*02:01 complex (recombinant) (human)
Experiment: SPR
reported.property: binding result

INSERT INTO assay_data (binder, reported_value) VALUES
  ('AS170036 VL1VH1-VLH98T (scFv) scFv: QSALTQPRSVSGSPGQSVTISCAGTSSDVGSENYVSWYQQHPGKAPKLMIYQVNKRASGVPDRFSGSKSGNTASLTISGLQAEDEADYYCASYRSSDTNIVFGGGTKLTVLGGGGSGGGGSGGGGSEVQLVESGGGLVQPGGSLRLSCAASGFTFSSYAMSWVRQAPGKGLEWVSTINSGTGSPYYADSVKGRFTISRDNSKNTLYLQMNSLRAEDTAVYYCAKNFFDGSWFLGPPAMDYWGQGTLVTVSSHHHHHH', 'no binding'),
  ('AS170036 VL1VH1-VHG108E (scFv) scFv: QSALTQPRSVSGSPGQSVTISCAGTSSDVGSENYVSWYQQHPGKAPKLMIYQVNKRASGVPDRFSGSKSGNTASLTISGLQAEDEADYYCASYRSSDHNIVFGGGTKLTVLGGGGSGGGGSGGGGSEVQLVESGGGLVQPGGSLRLSCAASGFTFSSYAMSWVRQAPGKGLEWVSTINSGTGSPYYADSVKGRFTISRDNSKNTLYLQMNSLRAEDTAVYYCAKNFFDGSWFLEPPAMDYWGQGTLVTVSSHHHHHH', 'no binding'),
  ('AS170036 VL1VH1-VHS57Q (scFv) scFv: QSALTQPRSVSGSPGQSVTISCAGTSSDVGSENYVSWYQQHPGKAPKLMIYQVNKRASGVPDRFSGSKSGNTASLTISGLQAEDEADYYCASYRSSDHNIVFGGGTKLTVLGGGGSGGGGSGGGGSEVQLVESGGGLVQPGGSLRLSCAASGFTFSSYAMSWVRQAPGKGLEWVSTINSGTGQPYYADSVKGRFTISRDNSKNTLYLQMNSLRAEDTAVYYCAKNFFDGSWFLGPPAMDYWGQGTLVTVSSHHHHHH', 'no binding');
